Each recorded value in this set is attributed to patent US20200325187A1.

Molecular target: T1, hVEGF-A Y21A (human, UniProt P15692-4 34-135, Y21A)
T1 construct: position probably counted on the mature protein
T1 sequence (looked up): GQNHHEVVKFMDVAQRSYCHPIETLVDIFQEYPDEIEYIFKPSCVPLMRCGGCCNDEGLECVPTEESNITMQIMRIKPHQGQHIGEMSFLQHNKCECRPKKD
Test: SPR
Entries and their measured Kd follow.
Answer with the figure and its unit, nothing else.

Study these solved cases before continuing.
BINDER	Kd
GCDVMQPYWGCKQDSDCLAGCVCHWYNSCG (designed binder, also called EM63) [VEGF_CKP9.63]	585 nM
GCDVMQPYWGCGPDIDCLAGCVCHWYNSCG (designed binder, also called L2.9.63.12) [VEGF_CKP9.63.12]	9.84 nM
GCNIMLPFWGCGRDFECLAGCVCQYYQSCG (designed binder) [VEGF_CKP9.54.90]	3.5 nM

Please turn your attention to the following entry.
Quick check: Kd of GCNIMLPFWGCKQDSDCLAGCVCQYYQSCG (designed binder, also called EM54) [VEGF_CKP9.54] ?
317 nM
